# Test system: 994946-033-R-J1-PDC complex spheroid viability
# TEST NAME: Anticancer human tumor 994946-033-R-J1-PDC patient-derived melanoma cell line growth inhibition [POLQ]
# ASSAY CONTEXT: curve of first compound; second compound 10 µM
METRIC NAME: IC50 (nM)
Return type: number; implicit unit nM.

Previously resolved entries follow.
CC(C)n1c(=O)n(C)c2cnc3cc(F)c(-c4ccc(OCCCN5CCCCC5)nc4)cc3c21 + Cc1cccc(N(C)C(=O)C2C(O)CCN2c2nc(C)cc(C(F)(F)F)c2C#N)c1 :: 4140
O=C(Nc1ccc(O)c(NS(=O)(=O)c2ccc(F)cc2)c1)c1ccc(-c2ccccc2)cc1 + Cc1cccc(N(C)C(=O)C2C(O)CCN2c2nc(C)cc(C(F)(F)F)c2C#N)c1 :: 2980
CC1COCCN1c1cc(-c2ccnn2C)c2ccnc(-c3ccn[nH]3)c2n1 (configuration not stated) + Cc1cccc(N(C)C(=O)C2C(O)CCN2c2nc(C)cc(C(F)(F)F)c2C#N)c1 :: 88.2
COc1ccc([C@@H](O)c2cc(-c3ncnc4cc(N5CCOCC5)ccc34)c(F)cc2Cl)nn1 + Nc1ccc(C#CCN(C(=O)Cc2ncc(C(F)(F)F)cc2C(F)(F)F)c2ccc(F)cc2)nn1 :: 4520
Nc1ccn(C2OC(CO)C(O)C2(F)F)c(=O)n1 (configuration not stated) + Nc1ccc(C#CCN(C(=O)Cc2ncc(C(F)(F)F)cc2C(F)(F)F)c2ccc(F)cc2)nn1 :: 120
COc1cccc(OCCCN)c1-c1cc(Nc2cnc(C#N)cn2)n[nH]1 + Nc1ccc(C#CCN(C(=O)Cc2ncc(C(F)(F)F)cc2C(F)(F)F)c2ccc(F)cc2)nn1 :: 19.7

Consider now this further compound.
Asked: // lookup IC50 for C#Cc1c(F)ccc2cc(O)cc(-c3ncc4c(N5CC6CCC(C5)N6)nc(OCC56CCCN5CC(F)C6)nc4c3F)c12 (configuration not stated) + Nc1ccc(C#CCN(C(=O)Cc2ncc(C(F)(F)F)cc2C(F)(F)F)c2ccc(F)cc2)nn1
Given back: 5090

* * *

# System: 994946-033-R-J1-PDC complex spheroid viability
# TEST NAME: Anticancer human tumor 994946-033-R-J1-PDC cell line growth inhibition [POLQ];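 also: spheroids exposed to drugs for 7 days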;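 as to viability, T/C: 100% = DMSO vehicle treated spheroids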
# ASSAY CONTEXT: second compound 10 µM; first compound 0.0316 µM; stronger effect = lower value
Measured viability, T/C, listed per entry.
Return type: number; implicit unit %.

CCc1cc2c(N3CCc4c(cc(Cn5ccnc5)cc4-c4cn(C)nc4C(F)(F)F)C3=O)cc(C)nc2c(OC)n1 + Nc1ccc(C#CCN(C(=O)Cc2ncc(C(F)(F)F)cc2C(F)(F)F)c2ccc(F)cc2)nn1 :: 107

Asked: // lookup viability, T/C for Cn1ncnc1[C@H]1c2n[nH]c(=O)c3cc(F)cc(c23)N[C@@H]1c1ccc(F)cc1 + Cc1cccc(N(C)C(=O)C2C(O)CCN2c2nc(C)cc(C(F)(F)F)c2C#N)c1
Given back: 74.8

Asked: // lookup viability, T/C for COc1cccc2c1C(=O)c1c(O)c3c(c(O)c1C2=O)CC(O)(C(=O)CO)CC3OC1CC(N)C(O)C(C)O1 (stereo not drawn) + Cc1cccc(N(C)C(=O)C2C(O)CCN2c2nc(C)cc(C(F)(F)F)c2C#N)c1
Given back: 33.1

Asked: // lookup viability, T/C for C=CCn1c(=O)c2cnc(Nc3ccc(N4CCN(C)CC4)cc3)nc2n1-c1cccc(C(C)(C)O)n1 + COC1C(OC(N)=O)C(O)C(Oc2ccc3c(O)c(NC(=O)c4ccc(O)c(CC=C(C)C)c4)c(=O)oc3c2C)OC1(C)C
Given back: 120

Asked: // lookup viability, T/C for O=C(c1cc(Cc2n[nH]c(=O)c3ccccc23)ccc1F)N1CCN(C(=O)C2CC2)CC1 + COC1C(OC(N)=O)C(O)C(Oc2ccc3c(O)c(NC(=O)c4ccc(O)c(CC=C(C)C)c4)c(=O)oc3c2C)OC1(C)C
Given back: 95.5

Asked: // lookup viability, T/C for CCCS(=O)(=O)Nc1ccc(F)c(C(=O)c2c[nH]c3ncc(-c4ccc(Cl)cc4)cc23)c1F + COC1C(OC(N)=O)C(O)C(Oc2ccc3c(O)c(NC(=O)c4ccc(O)c(CC=C(C)C)c4)c(=O)oc3c2C)OC1(C)C
Given back: 102

Asked: // lookup viability, T/C for CCc1cc2c(N3CCc4c(cc(Cn5ccnc5)cc4-c4cn(C)nc4C(F)(F)F)C3=O)ccnc2c(OC)n1 + Cc1cccc(N(C)C(=O)C2C(O)CCN2c2nc(C)cc(C(F)(F)F)c2C#N)c1
Given back: 81.5

Asked: // lookup viability, T/C for C=CCn1c(=O)c2cnc(Nc3ccc(N4CCN(C)CC4)cc3)nc2n1-c1cccc(C(C)(C)O)n1 + Cc1cccc(N(C)C(=O)C2C(O)CCN2c2nc(C)cc(C(F)(F)F)c2C#N)c1
Given back: 81.3

* * *

# System: 994946-033-R-J1-PDC complex spheroid viability
# TEST NAME: Anticancer human tumor 994946-033-R-J1-PDC cell line growth inhibition [POLQ];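 also: spheroids exposed to drugs for 7 days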
# ASSAY CONTEXT: curve of first compound; second compound 0.316 µM
pIC50: −log10 of the molar value.
Measured pIC50, listed per entry.

Previously resolved entries follow.
CCc1cc2c(N3CCc4c(cc(Cn5ccnc5)cc4-c4cn(C)nc4C(F)(F)F)C3=O)cc(C)nc2c(OC)n1 + COC1C(OC(N)=O)C(O)C(Oc2ccc3c(O)c(NC(=O)c4ccc(O)c(CC=C(C)C)c4)c(=O)oc3c2C)OC1(C)C :: < 5.00
COc1cccc2c1C(=O)c1c(O)c3c(c(O)c1C2=O)CC(O)(C(=O)CO)CC3OC1CC(N)C(O)C(C)O1 (centres undefined) + COC1C(OC(N)=O)C(O)C(Oc2ccc3c(O)c(NC(=O)c4ccc(O)c(CC=C(C)C)c4)c(=O)oc3c2C)OC1(C)C :: > 7.50
Cn1ncnc1[C@H]1c2n[nH]c(=O)c3cc(F)cc(c23)N[C@@H]1c1ccc(F)cc1 + Nc1ccc(C#CCN(C(=O)Cc2ncc(C(F)(F)F)cc2C(F)(F)F)c2ccc(F)cc2)nn1 :: < 7.00

Consider now this further compound.
Asked: // lookup pIC50 for COc1cccc2c1C(=O)c1c(O)c3c(c(O)c1C2=O)CC(O)(C(=O)CO)CC3OC1CC(N)C(O)C(C)O1 (centres undefined) + Nc1ccc(C#CCN(C(=O)Cc2ncc(C(F)(F)F)cc2C(F)(F)F)c2ccc(F)cc2)nn1
Given back: > 7.50

* * *

# Tested on: 994946-033-R-J1-PDC complex spheroid viability
# TEST NAME: Anticancer human tumor 994946-033-R-J1-PDC cell line growth inhibition [POLQ];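 also: spheroids exposed to drugs for 7 days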
# ASSAY CONTEXT: curve of first compound; second compound 0.1 µM
Measured IC50, listed per entry.

Previously resolved entries follow.
CCc1cc2c(N3CCc4c(cc(Cn5ccnc5)cc4-c4cn(C)nc4C(F)(F)F)C3=O)ccnc2c(OC)n1 + COC1C(OC(N)=O)C(O)C(Oc2ccc3c(O)c(NC(=O)c4ccc(O)c(CC=C(C)C)c4)c(=O)oc3c2C)OC1(C)C :: > 10 µM
COc1cc2cc(C(=O)CCC(=O)O)sc2cc1OC + Nc1ccc(C#CCN(C(=O)Cc2ncc(C(F)(F)F)cc2C(F)(F)F)c2ccc(F)cc2)nn1 :: > 10 µM

Asked: // lookup IC50 for Nc1ccn(C2OC(CO)C(O)C2(F)F)c(=O)n1 (stereo unspecified) + Cc1cccc(N(C)C(=O)C2C(O)CCN2c2nc(C)cc(C(F)(F)F)c2C#N)c1
Given back: < 0.0316 µM

Asked: // lookup IC50 for CCc1c2c(nc3ccc(O)cc13)-c1cc3c(c(=O)n1C2)COC(=O)[C@]3(O)CC + COC1C(OC(N)=O)C(O)C(Oc2ccc3c(O)c(NC(=O)c4ccc(O)c(CC=C(C)C)c4)c(=O)oc3c2C)OC1(C)C
Given back: < 0.00316 µM

Asked: // lookup IC50 for COc1cccc2c1C(=O)c1c(O)c3c(c(O)c1C2=O)CC(O)(C(=O)CO)CC3OC1CC(N)C(O)C(C)O1 (stereo unspecified) + COC1C(OC(N)=O)C(O)C(Oc2ccc3c(O)c(NC(=O)c4ccc(O)c(CC=C(C)C)c4)c(=O)oc3c2C)OC1(C)C
Given back: < 0.0316 µM

Asked: // lookup IC50 for CCc1cc2c(N3CCc4c(cc(Cn5ccnc5)cc4-c4cn(C)nc4C(F)(F)F)C3=O)cc(C)nc2c(OC)n1 + Cc1cccc(N(C)C(=O)C2C(O)CCN2c2nc(C)cc(C(F)(F)F)c2C#N)c1
Given back: > 10 µM

* * *

# System: 994946-033-R-J1-PDC complex spheroid viability
# TEST NAME: Anticancer human tumor 994946-033-R-J1-PDC cell line growth inhibition [POLQ];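 also: spheroids exposed to drugs for 7 days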;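 as to viability, T/C: 100% = DMSO vehicle treated spheroids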
# ASSAY CONTEXT: second compound 10 µM; first compound 10 µM; stronger effect = lower value
Each entry falls into one class according to its viability, T/C; the ranges are bottom = under 20%, middle = from 20% up to 40%, top = 40% and over

Solved cases below.
CCc1cc2c(N3CCc4c(cc(Cn5ccnc5)cc4-c4cn(C)nc4C(F)(F)F)C3=O)cc(C)nc2c(OC)n1 + Nc1ccc(C#CCN(C(=O)Cc2ncc(C(F)(F)F)cc2C(F)(F)F)c2ccc(F)cc2)nn1 :: top
O=c1[nH]cc(F)c(=O)[nH]1 + Nc1ccc(C#CCN(C(=O)Cc2ncc(C(F)(F)F)cc2C(F)(F)F)c2ccc(F)cc2)nn1 :: top
O=C(c1cc(Cc2n[nH]c(=O)c3ccccc23)ccc1F)N1CCN(C(=O)C2CC2)CC1 + COC1C(OC(N)=O)C(O)C(Oc2ccc3c(O)c(NC(=O)c4ccc(O)c(CC=C(C)C)c4)c(=O)oc3c2C)OC1(C)C :: middle
CCCS(=O)(=O)Nc1ccc(F)c(C(=O)c2c[nH]c3ncc(-c4ccc(Cl)cc4)cc23)c1F + COC1C(OC(N)=O)C(O)C(Oc2ccc3c(O)c(NC(=O)c4ccc(O)c(CC=C(C)C)c4)c(=O)oc3c2C)OC1(C)C :: bottom
O=C(Nc1ccc(O)c(NS(=O)(=O)c2ccc(F)cc2)c1)c1ccc(-c2ccccc2)cc1 + COC1C(OC(N)=O)C(O)C(Oc2ccc3c(O)c(NC(=O)c4ccc(O)c(CC=C(C)C)c4)c(=O)oc3c2C)OC1(C)C :: middle
O=C(Nc1ccc(O)c(NS(=O)(=O)c2ccc(F)cc2)c1)c1ccc(-c2ccccc2)cc1 + Cc1cccc(N(C)C(=O)C2C(O)CCN2c2nc(C)cc(C(F)(F)F)c2C#N)c1 :: middle
C=CC(=O)N1CCN(c2nc(=O)n(-c3c(C)ccnc3C(C)C)c3nc(-c4c(O)cccc4F)c(F)cc23)C(C)C1 (centres undefined) + COC1C(OC(N)=O)C(O)C(Oc2ccc3c(O)c(NC(=O)c4ccc(O)c(CC=C(C)C)c4)c(=O)oc3c2C)OC1(C)C :: top

Now examine the next entry.
Asked: Which class holds COc1cccc2c1C(=O)c1c(O)c3c(c(O)c1C2=O)CC(O)(C(=O)CO)CC3OC1CC(N)C(O)C(C)O1 (centres undefined) + Nc1ccc(C#CCN(C(=O)Cc2ncc(C(F)(F)F)cc2C(F)(F)F)c2ccc(F)cc2)nn1 ?
Given back: bottom

All figures here come from PubChem BioAssay AID1963827.
